test.target: mutEGFR (D770_N771insSVD) (Homo sapiens, UniProt P00533, DUP768-770)
Construct: GST-EGFR #3 (SVD between D770 and N771); made in house; host or cells: Sf9 insect cells (baculovirus)
Sequence (P00533 with tags, fused parts or gaps DUP768-770): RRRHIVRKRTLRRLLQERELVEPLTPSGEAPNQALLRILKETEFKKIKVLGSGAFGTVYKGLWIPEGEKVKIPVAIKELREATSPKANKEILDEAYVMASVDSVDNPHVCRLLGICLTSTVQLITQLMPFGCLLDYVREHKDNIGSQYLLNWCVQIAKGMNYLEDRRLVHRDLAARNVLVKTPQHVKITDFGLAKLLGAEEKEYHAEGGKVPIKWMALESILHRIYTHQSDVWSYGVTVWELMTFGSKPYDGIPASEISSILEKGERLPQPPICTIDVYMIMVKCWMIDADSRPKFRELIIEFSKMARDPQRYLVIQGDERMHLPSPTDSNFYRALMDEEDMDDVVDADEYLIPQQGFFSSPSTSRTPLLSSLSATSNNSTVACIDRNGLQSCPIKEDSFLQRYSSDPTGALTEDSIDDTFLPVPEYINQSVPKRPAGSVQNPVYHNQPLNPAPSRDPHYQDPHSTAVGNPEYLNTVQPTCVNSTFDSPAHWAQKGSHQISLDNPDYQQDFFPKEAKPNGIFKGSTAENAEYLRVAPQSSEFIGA
assay.summary: Exon20-Mutant-EGFR (D770_N771insSVD) kinase assay (TR-FRET)
Assay type: biochemical
test.conditions: mutEGFR (D770_N771insSVD) kinase assay IC50, Table 2a; D770_N771insSVD; 2 mM ATP
pIC50: −log10 of the molar value.
observed.property: pIC50

In the examples that follow, each entry is paired with its recorded pIC50.
| compound | value.observed |
| --- | --- |
| C=CC(=O)N1CCn2nc(-c3cc4ccoc4cc3F)c(-c3ccncc3)c2C1 | 9.71 |
| C=CC(=O)N1CCn2nc(-c3ccc(OC)c(F)c3)c(-c3ccnc4[nH]cc(C)c34)c2C1 | 6.11 |
| C=CC(=O)N1Cc2c(-c3ccncc3)c(-c3ccc(Cl)c(C)c3)nn2C(C)(C)C1 | 9.85 |

1 = C=CC(=O)N1CCn2nc(-c3ccc(F)cc3)c(-c3ccncc3)c2C1C (racemic)
2 = C/C=C/C(=O)N1CCn2nc(-c3ccc(F)cc3)c(-c3ccncc3)c2C1
## Task Hey, which is lower on measured pIC50, 1 or 2 ? I would appreciate it if you answered with the label of your choice.
## Result 2
(2: 6.68, 1: 8.86)

a = CN(C)C/C=C/C(=O)N1CCn2nc(-c3ccccc3F)c(-c3ccncc3)c2C1
b = C=CC(=O)N1CCn2nc(-c3ccc(OCC)cc3)c(-c3ccncc3)c2C1
## Task Hey, which is lower on measured pIC50, a or b ? I would appreciate it if you answered with the label of your choice.
## Result b
(b: 8.17, a: 8.64)

P = C=CC(=O)N1Cc2c(-c3ccnc4[nH]cc(C)c34)c(-c3ccc(C(F)(F)F)cc3)nn2C[C@H]1C
Q = O=C(/C=C/CN1CCC1)N1CCn2nc(-c3ccc(Cl)cc3F)c(-c3ccncc3)c2C1
R = C=CC(=O)N1CCn2nc(-c3ccccc3Cl)c(-c3ccncc3)c2C1
S = CN1CCN(C/C=C/C(=O)N2CCn3nc(-c4ccc(F)cc4)c(-c4ccncc4)c3C2)CC1
T = C=CC(=O)N1CCn2nc(-c3ccc(F)cc3)c(-c3ccnc4[nH]ccc34)c2C1
## Task # rank_down: sort by pIC50, max first Kindly provide the labels arranged according to the requested ordering.
## Result Q, R, T, S, P
(Q: 9.46, R: 8.80, T: 8.29, S: 7.53, P: 7.08)

P = CN(C)CC#CC(=O)N1CCn2nc(-c3ccc(F)cc3)c(-c3ccncc3)c2C1
Q = O=C(/C=C/CO)N1CCn2nc(-c3ccc(F)cc3)c(-c3ccncc3)c2C1
R = CN(C)C/C=C/C(=O)N1CCn2nc(-c3ccc(Cl)c(Cl)c3)c(-c3ccncc3)c2C1
S = C=CC(=O)N1CCn2nc(-c3ccc(C(F)(F)F)nc3)c(-c3ccncc3)c2C1
## Task Sort (4 compounds) by pIC50: min first. Kindly provide the labels arranged according to the requested ordering.
## Result S, Q, R, P

---

System: BA/F3 (insSVD) cells
assay.summary: Ba/F3-EGFR-insSVD cell survival assay (Cell Titer-Glo)
Type: cell-based
test.conditions: Mus musculus, BaF3, 48 h, Table 3a, cell survival, Cell Titer-Glo, with 10 ng/ml EGF, without IL-3
observed.property: IC50 (nM)
Provide only the numeric value, understood in nM.

## Task Can you share its IC50? I mean this molecule: C=CC(=O)N1CCn2nc(-c3ccccc3OC)c(-c3ccncc3)c2C1
## Result 622

All values here come from patent US20260365653A1.
